Target: RELB subunit;p50 subunit (Homo sapiens;Homo sapiens, UniProt Q01201;P19838 120-401;7-356)
Sequence (Q01201 120-401, chain 1 of 2): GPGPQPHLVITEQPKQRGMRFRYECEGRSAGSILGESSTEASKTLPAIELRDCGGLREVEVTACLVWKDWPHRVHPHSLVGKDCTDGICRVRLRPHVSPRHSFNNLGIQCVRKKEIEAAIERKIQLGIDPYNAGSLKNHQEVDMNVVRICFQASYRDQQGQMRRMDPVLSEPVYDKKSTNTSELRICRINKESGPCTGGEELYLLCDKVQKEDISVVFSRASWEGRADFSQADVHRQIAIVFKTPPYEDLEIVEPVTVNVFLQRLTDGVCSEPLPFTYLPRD
Sequence (P19838 7-356, chain 2 of 2): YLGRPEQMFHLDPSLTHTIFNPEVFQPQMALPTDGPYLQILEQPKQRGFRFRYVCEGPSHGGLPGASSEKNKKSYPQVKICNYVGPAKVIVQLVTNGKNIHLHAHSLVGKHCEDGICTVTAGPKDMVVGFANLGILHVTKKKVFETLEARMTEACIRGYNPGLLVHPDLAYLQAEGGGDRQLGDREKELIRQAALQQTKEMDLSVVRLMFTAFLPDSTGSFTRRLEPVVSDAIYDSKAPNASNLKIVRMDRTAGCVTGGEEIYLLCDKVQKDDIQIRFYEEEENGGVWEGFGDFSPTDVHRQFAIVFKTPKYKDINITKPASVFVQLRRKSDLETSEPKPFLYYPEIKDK
Test: protein binding microarray; high values mean tight binding
Details: dsDNA, one strand shown
observation_type: binding signal (z-score)

1. GGAGAGCTCCT ... -1.17
2. GAGGAGCCCCC ... 0.656
3. AGGGGATCCCT ... 1.58
4. AAAAGAATCCC ... 0.356
5. GGAGGACCCCT ... -0.321
6. GGGTACCTCCC ... 0.429
7. AGAAGTCCCCC ... 2.05
8. AGATTCCTCCC ... -0.305
9. CGAAAAATCCT ... -0.775
10. GAAGGCATCCT ... -1.29

----------
The entries below come with measured binding signal values attached.
Target: C-Rel subunit;p50 subunit (Homo sapiens;Homo sapiens, UniProt Q04864;P19838 1-285;7-356)
Sequence (Q04864 1-285, chain 1 of 2): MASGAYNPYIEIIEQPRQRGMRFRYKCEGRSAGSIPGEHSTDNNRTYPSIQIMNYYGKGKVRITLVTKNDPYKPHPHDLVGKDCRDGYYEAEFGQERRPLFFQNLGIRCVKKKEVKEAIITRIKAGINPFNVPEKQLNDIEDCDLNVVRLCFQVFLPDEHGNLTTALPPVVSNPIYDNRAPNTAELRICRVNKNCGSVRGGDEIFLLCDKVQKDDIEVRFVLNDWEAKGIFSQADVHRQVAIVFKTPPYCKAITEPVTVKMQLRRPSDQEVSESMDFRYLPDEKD
Sequence (P19838 7-356, chain 2 of 2): as the sequence (P19838 7-356, chain 2 of 2) above
Assay: protein binding microarray; high values mean tight binding
Settings: dsDNA, one strand shown
observation_type: binding signal (z-score)

1. AGGATGTTCCC ... 0.00777
2. GGGGAATTCCC ... 3.14
3. GGGTGGGCCCT ... -0.304
4. AGAAGCATCCC ... -1.06
5. GAGGAGCCCCC ... 0.625
6. CAATGCACCCT ... -1
7. AAGGGGGCCCC ... 0.532
8. AAGAATTTCCT ... 0.0204
9. AGGTTGGCCCC ... -0.00473
10. CAAGAAACCCT ... -0.467
11. GAAGGCCCCCC ... 0.408
12. AGAAAACTCCC ... 0.654
13. CGAATGATCCT ... -1.72
14. GAAGGTGCCCT ... -1.15
15. AGATTCTTCCT ... -0.642
16. GAAAGTTCCCT ... 0.705
17. CAATTATCCCC ... 1.2
18. AAAAACATCCT ... -1.09
19. AGATGTTTCCC ... 1.05
20. GAATGCCTCCT ... -1.51
21. GGAGAACCCCC ... 1.21
22. AGATGAATCCT ... -1.39
23. CGAAATCCCCC ... 1.83
24. CAAATGGTCCT ... -1.3
25. GAGTGTACCCC ... 0.0895
26. GAGATGATCCT ... -1.84
27. AGATTATCCCT ... 0.0293
28. CGAAGTGTCCT ... -1.19
29. AAGAGAGCCCC ... 0.0932
30. GGATAGGTCCC ... -0.467
31. AAGGATACCCC ... 0.507
32. AAGAAGGTCCT ... -1.3
33. AGGGTGCCCCT ... 0.426
34. GAAGTAATCCT ... -1.23
35. GAGAGACTCCT ... -1.58
36. CAGAATCTCCC ... 0.223
37. AAGGGACCCCC ... 0.681
38. AAGGTCCCCCC ... 1.34
39. AAAAGAATCCC ... 0.495
40. AAGTTGATCCC ... -1.07
41. CAATACATCCC ... -0.971
42. AGATGGTTCCT ... -1.36
